measurementDescription: binders of probe aFGF2 on microarray, primary screen, stem cell growth factor project, biochemical, small-molecule microarray, fluorescence 635/667 (AID 1067);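 note: measures binding of biotinylated aFGF2 protein to printed compounds on slides; z-score merges feature fluorescence and signal-to-noise across triplicate slides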
appliedConditions: higher = more signal
composite z-score vs -0.01: at or above is Criterion met, below is Criterion not met.

- molecule: "C=CCN1C(=O)[C@]2(O[C@H](CCn3cc(CCO)nn3)[C@@H]([Si](C)(C)c3ccc(OC)cc3)[C@@H]2C)c2cc(N3CCOC3=O)ccc21"
  group: "Criterion not met"
- molecule: "CCc1cccc(NC(=O)O[C@H]2[C@H](OC(=O)Nc3ccc4c(c3)OCO4)[C@@H](OC(=O)Nc3ccc4c(c3)OCO4)[C@@H](OC)O[C@@H]2CO)c1"
  group: "Criterion met"
- molecule: "COCCOC(=O)N1C(=O)[C@@]2(c3ccccc31)[C@H](C(N)=O)[C@H]1C(=O)O[C@H](c3ccccc3)[C@H](c3ccccc3)N1[C@@H]2c1ccccc1OCCO"
  group: "Criterion met"
- molecule: "C=CCOC(=O)[C@H]1[C@@H]2C(=O)O[C@@H](c3ccccc3)[C@@H](c3ccccc3)N2[C@@H](c2ccc(OCCOC(=O)[C@H]3C[C@H]4C(=O)N[C@@H](Cc5ccccc5)C(=O)N4[C@H]3c3ccc(O)cc3)cc2)[C@]12C(=O)Nc1ccccc12"
  group: "Criterion not met"
- molecule: "CC(C)C[C@@H]1NC(=O)[C@H]2C[C@@H](C(=O)O)[C@@H](c3ccc(O)cc3)N2C1=O"
  group: "Criterion not met"

Test whether the molecule O[C@@H](Cc1ccccc1)[C@H]1C2C=CCCC(c3ccccc3)=C2CN1Cc1cccc(Cl)c1 (some centres not stated) records composite z-score of -0.01 or higher.
Criterion not met

// same read-out, input: O=C1[C@H]2[C@H]3[C@H](O)[C@H](O)CC(=NO[C@@H]4O[C@H](CO)[C@@H](O)[C@H](O)[C@H]4O)[C@H]3CC[C@H]2C(=O)N1C1CCCCC1
Criterion not met

----------
subjectOfTest: Carbonic anhydrase 2 (Homo sapiens)
measurementDescription: CAII small-molecule binders, profiling panel, biochemical, small-molecule microarray, Alexa647-labelled CAII (AID 1122)
appliedConditions: CAII-A647 binding fluorescence, higher = more signal
Kind request: treat 0.5 as inclusive, so composite z-score at 0.5 or higher is t, anything lower is f.

Take a look at these entries with their results.
- compound: "COc1ccc(O[C@H]2C=C[C@@H](c3ccccc3)O[C@@H]2COC(=O)N2CCCCC2)cc1"
  subjectOfTest: "Carbonic anhydrase 2 (Homo sapiens)"
  group: "f"
- compound: "COc1ccc(-c2nc3c(c4c2C[C@H](C)OC4)CN(CCC(C)C)CC3)cc1"
  subjectOfTest: "Carbonic anhydrase 2 (Homo sapiens)"
  group: "f"
- compound: "CCc1cc2c(nc1CC)CCN(CCC(C)=NOC(C)CN1CCCc3nc(C)c(C)cc31)C2 (stereo unspecified)"
  subjectOfTest: "Carbonic anhydrase 2 (Homo sapiens)"
  group: "f"
- compound: "Cc1ccc(S[C@]2(C(=O)NCC(F)(F)F)CC(=O)N(Cc3ccccc3Cl)[C@@H]2c2ccc(CO)cc2I)cc1"
  subjectOfTest: "Carbonic anhydrase 2 (Homo sapiens)"
  group: "t"
- compound: "C=C(CCCC)C(=O)CC[C@@H](OC(C)=O)c1cccc(OCCO)c1"
  subjectOfTest: "Carbonic anhydrase 2 (Homo sapiens)"
  group: "t"
- compound: "COC(=O)[C@H](C)NC(=O)CCC1CC(OC(=O)NCc2ccc3c(c2)OCO3)CC2(CCCC(COC(=O)NCCOc3ccccc3)O2)O1 (stereo partly specified)"
  subjectOfTest: "Carbonic anhydrase 2 (Homo sapiens)"
  group: "f"
- compound: "Cc1ccc(S[C@]2(C(=O)O)CC(=O)N(Cc3ccccc3)[C@@H]2c2ccc(CO)cc2I)cc1"
  subjectOfTest: "Carbonic anhydrase 2 (Homo sapiens)"
  group: "t"
- compound: "CCOC(=O)CCN1C(=O)[C@H]2[C@H]3[C@H](O)[C@H](O)CC(=NOC[C@@H](O)COCc4ccco4)[C@@H]3CC[C@H]2C1=O"
  subjectOfTest: "Carbonic anhydrase 2 (Homo sapiens)"
  group: "f"

Quick check: does COC(=O)[C@@H]1N=C(c2ccc(OCCCO)cc2)O[C@@H]1c1ccccc1N=[N+]=[N-] have composite z-score greater than or equal to 0.5?
t

Now the compound C#C[C@@H]1Oc2ccccc2S(=O)(=O)N2CCC[C@H]12
f

Continue with CC(C)[Si]1(C(C)C)O[C@@H](c2ccccc2)c2cc(C3CC3)nc(-c3ccccc3)c21
f

Input C/C=C\[C@@H](NCc1ccccc1Br)[C@@H](O)Cc1ccccc1
f

----------
# maps each entry to its z-score
measurementDescription: mitochondrial membrane potential change in A549 cells, profiling panel, cell-based, JC-1 fluorescence, basal, 24 h, 100 nL (AID 1138);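 note: A549 lung adenocarcinoma cells under basal conditions with no added stimulus; test concentration not given here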
appliedConditions: higher = more signal

Solved entries (count: 8):
- molecule: "C=COC[C@H]1CN2[C@@H](CC[C@@H](C)[C@@H]2c2ccc(Br)cc2)C(=O)O1"
  experimentalEndpoint: "z-score"
  endpointResult: 0.587
- molecule: "CCN(CC)c1ccc(N2CC=CC34O[C@@H]5/C=C\\CCC(C)OC(=O)C5[C@H]3C(=O)N(CCCO)[C@@H]4C2=O)cc1 (some centres not stated)"
  experimentalEndpoint: "z-score"
  endpointResult: 0.881
- molecule: "CC(=O)OC[C@H]1O[C@H](CCON=C[C@@H](C)[C@H](OCc2ccccc2)C(C)C)C=C[C@@H]1OC(C)=O"
  experimentalEndpoint: "z-score"
  endpointResult: -0.808
- molecule: "CC1(C)OCC(C(O)C2=CCCCC2=O)CO1 (configuration not stated)"
  experimentalEndpoint: "z-score"
  endpointResult: -0.867
- molecule: "CCCCc1nc2c(c3c1C[C@H](C)OC3)CN(CCC(C)C)CC2"
  experimentalEndpoint: "z-score"
  endpointResult: 1.8
- molecule: "Cc1ccc(S[C@]2(C(=O)O)CC(=O)N(Cc3ccccc3)[C@@H]2c2ccc(CO)cc2I)cc1"
  experimentalEndpoint: "z-score"
  endpointResult: 0.305
- molecule: "C=C(/C(=C/C[C@H](OC(=O)c1ccncc1)c1ccc(OCCO)cc1)c1cnc2ccccc2c1)C(C)C"
  experimentalEndpoint: "z-score"
  endpointResult: 1.26
- molecule: "[N-]=[N+]=NCc1ccccc1[C@@H]1OC(c2ccc(OCCCO)cc2)=N[C@]1(Cc1ccccc1)C(=O)N1CCOCC1"
  experimentalEndpoint: "z-score"
  endpointResult: 1.23

Requested read-out: z-score. Entry: NCCCCCNC(=O)[C@@H]1C[C@@H]2C(=O)N3CCC[C@H]3C(=O)N2[C@@H]1c1cccc(OCCO)c1
-0.269

And the next one, C[C@@H]1C=CCC(=O)OC[C@H](C)C(=O)OC[C@H]2O[C@H]1C=C[C@H]2O ?
0.328

----------
System: Inhibin beta A chain (activin A)
measurementDescription: INHBA (activin A) binders on microarrays, primary screen, biochemical, small-molecule microarray, 635 nm fluorescence scan (AID 1107);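 note: mouse activin A protein probed at 4.33 µg/mL on printed slides; score merges bound-protein fluorescence near 667 nm with spot signal-to-noise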
appliedConditions: small-molecule microarray binding, higher = more signal
Is composite z-score at least -0.003? Then True. If not, False.

- compound: "CC(C)(C)N1C(=O)[C@H]2[C@H]3[C@H](O)[C@H](O)CC(=NO[C@@H]4O[C@H](CO)[C@@H](O)[C@H](O)[C@H]4O)[C@@H]3CC[C@H]2C1=O"
  group: "True"

Hi team, for CCOC(=O)[C@H](Cc1ccccc1)NC(=O)CCC1CC(OC(=O)NCc2ccc3c(c2)OCO3)CC2(CCCC(COC(=O)NCC3CCCCC3)O2)O1 (some centres not stated) , is the recorded composite z-score at or above -0.003?
False

Moving on to the next compound: COCCCNC(=O)[C@]1(CCC(=O)OC(C)(C)C)N=C(c2ccc(OCCCO)cc2)O[C@@H]1c1ccccc1N=[N+]=[N-]
True

Also O=C1C[C@@H](O)[C@@H](O)[C@@H]2[C@@H]3C(=O)N(Cc4ccc5c(c4)OCO5)C(=O)[C@@H]3CC[C@@H]12 , if possible.
True

What do we get for CC(=O)C[C@H](O)[C@@H](NC(=O)OC(C)(C)C)C(C)C ?
True

Okay, and O=C1[C@H]2[C@H]3[C@H](O)[C@H](O)CC(=NOCc4ccccc4)[C@H]3CC[C@H]2C(=O)N1C[C@@H]1CCCO1 ?
False

Now try CCOC(=O)NN=C1C[C@@H](O)[C@@H](O)[C@@H]2[C@@H]3C(=O)N(CC)C(=O)[C@@H]3CC[C@@H]12 .
False

----------
Below, each entry is listed with its recorded z-score.
measurementDescription: basal HepG2 mitochondrial membrane potential changes, profiling panel, cell-based, JC-1 fluorescence, 24 h, 100 nL compound (AID 1167); note: test concentration not given here
appliedConditions: higher = more signal

// worked examples, z-score included
- structureAsSmiles: "CC(C)CON=C1C[C@@H](O)[C@@H](O)[C@@H]2[C@@H]3C(=O)N(C[C@@H]4CCCO4)C(=O)[C@@H]3CC[C@H]12"
  z-score: -0.637
- structureAsSmiles: "COc1ccc([Si](C)(C)[C@@H]2[C@@H](CC(=O)N3CCC[C@H]3CO)O[C@]3(C(=O)N(Cc4cccc(N5CCC5=O)c4)c4ccccc43)[C@H]2C)cc1"
  z-score: -0.729

Entry under review: CC(CCN1CCc2nc(-c3ccccc3)c(-c3ccccc3)cc2C1)=NOC[C@@H](C)[C@H](OCc1ccccc1)C(C)C . Reported z-score?
1.76

What would you report for [N-]=[N+]=NCc1ccccc1C[C@]1(C(=O)NCc2ccccc2)N=C(c2ccc(OCCCO)cc2)O[C@H]1c1ccccc1N=[N+]=[N-] ?
0.504

# repeat for CC(C)(C)OC(=O)CC[C@]1(C(=O)NCc2ccccc2)N=C(c2ccc(OCCCO)cc2)O[C@H]1c1ccccc1
0.956

And Cc1ccc(S[C@]2(C(=O)NCC(F)(F)F)CC(=O)N(Cc3ccccc3Cl)[C@@H]2c2ccc(CO)cc2I)cc1 ?
0.627

And COC(=O)c1c(CC[C@@H](CO)NC(=O)N[C@H](Cc2ccccc2)Cn2cc(-c3ccccc3N)nn2)oc(C(C)=O)c1C(=O)OC ?
-0.864

These data points were gathered from PubChem BioAssay.
